Cited source for all entries: ChEMBL document CHEMBL1121475

# System: Oryctolagus cuniculus
# test method notes: 100 mg/kg of [14C]- radiolabeled compound was orally (gavage) injected in rabbit kidney, and radioactivity content in feces was estimated
# Type: ADME, organism-based
# stated conditions: in vivo, po
endpoint label: Tissue concentration (µg/g)
Give bare numbers, in µg/g.

Entry CN1CCS/C1=N\C(=O)CCC(=O)/N=C1/SCCN1C has what Tissue concentration?
211

---

# assay target: Indolethylamine N-methyltransferase (Homo sapiens)
# test method notes: In vitro evaluation of Indoleethylamine-N-methyltransferase in human lung preparations for the ability to inhibit conversion of N-methyltryptamine (NMT) to N,N-dimethyltryptamine (DMT) at dose 2.5 ug/mL
# Assay type: tissue-based
endpoint label: inhibition (%)
Numbers only, in %.

Example cases with answers are listed next.
{"columns": ["compound", "inhibition, %"],
 "data": [
  ["CC(=O)CC(=O)/N=C1\\SCCN1C", 24],
  ["CN1CCS/C1=N\\C(=O)CN", 11],
  ["CC(=O)NC(Cc1ccccc1)C(=O)/N=C1\\SCCN1C (stereo unspecified)", 8]
]}

For each of the compounds below, note its inhibition.
1. CN1CCS/C1=N\C(=O)CCC(=O)/N=C1/SCCN1C
2. CN1CCS/C1=N\C(=O)c1cccnc1
3. CC(=O)NCC(=O)/N=C1\SCCN1C

1: 74; 2: 0; 3: 24

---

# Tested on: Oryctolagus cuniculus
# test method notes: Radioactivity measurements were performed following oral administration of the 100 mg/kg in rabbit 5 after 2 hr lung
# Format: ADME, organism-based
# Set-up: dose 100 mg/kg, route oral
# stated conditions: in vivo
endpoint label: Radioactivity level
Kindly report the value followed by its unit.

Entry CN1CCS/C1=N\C(=O)CCC(=O)/N=C1/SCCN1C has what Radioactivity level?
36.4 µg/g

---

# Test system: Oryctolagus cuniculus
# test method notes: 100 mg/kg of [14C]- radiolabeled compound was orally (gavage) injected in rabbit 1 lung, and radioactivity content in feces was estimated at
# Type: ADME, organism-based
# stated conditions: in vivo, po
endpoint label: Tissue to plasma ratio
Give bare numbers.

Entry CN1CCS/C1=N\C(=O)CCC(=O)/N=C1/SCCN1C has what Tissue to plasma ratio?
1.5
